- Test system: S. aureus ATCC 29213
- experimental.parameters: S. aureus ATCC 29213
Parameter: MIC S. aureus ATCC 29213. Scope: all listed entries.

{"columns": ["substance", "MIC S. aureus ATCC 29213 (mg/L)"],
 "data": [
  ["c[Arg-Arg-Arg-Arg-dip-Trp-dip] [IFX-098]", 3.1],
  ["c[Arg-Arg-arg-Arg-Dip-Trp-Dip] [IFX-092]", 3.1],
  ["c[Arg-Arg-Arg-Arg-Dip-dip-Dip] [IFX-061]", 3.1],
  ["c[arg-Arg-Arg-Arg-Dip-Trp-Dip] [IFX-094]", 3.1],
  ["c[Arg-Arg-Arg-arg-Dip-Dip-Dip] [IFX-063]", 3.1],
  ["c[arg-Arg-Arg-Arg-Dip-Dip-Dip] [IFX-066]", 3.1],
  ["c[Arg-arg-Arg-Arg-Dip-Dip-Dip] [IFX-065]", 3.1],
  ["c[Arg-Arg-Arg-Arg-dip-Dip-Dip] [IFX-062]", 3.1],
  ["c[Arg-Arg-Arg-Arg-Dip-Trp-dip] [IFX-088]", 3.1],
  ["c[Arg-Arg-arg-Arg-Dip-Dip-Dip] [IFX-064]", 3.1],
  ["c[Arg-Arg-Arg-Arg-Dip-Dip-dip] [IFX-060]", 1.5],
  ["c[Arg-Arg-Arg-arg-Dip-Trp-Dip] [IFX-091]", 3.1],
  ["c[Arg-Arg-Arg-Arg-dip-trp-dip] [IFX-100]", 1.5],
  ["c[Arg-Arg-Arg-Arg-naI-trp-naI] [IFX-143]", 1.5],
  ["c[Arg-Arg-Arg-Arg-Dip-trp-Dip] [IFX-089]", 3.1],
  ["c[Arg-arg-Arg-Arg-Dip-Trp-Dip] [IFX-093]", 3.1],
  ["c[Arg-Arg-Arg-Arg-dip-Trp-Dip] [IFX-090]", 3.1]
]}

meta.source: patent US20220289794A1
